Test system: panelists
test: Sensory properties in acidified water (pH 3.0) at 500 mg/L, 20 panelists
Assay type: in vivo, human
measurement.setup: 500 ppm, acidified water pH 3.0, 20 panelists
property.measured: Licorice taste: Number of panelists detected the attribute

[[record]]
compound = "C=C1C[C@@]23CC[C@H]4[C@@](C)(CCC[C@@]4(C)C(=O)O[C@@H]4O[C@H](CO)[C@@H](O)[C@H](O)[C@H]4O)[C@@H]2CC[C@]1(O[C@@H]1O[C@H](CO)[C@@H](O)[C@H](O)[C@H]1O[C@@H]1O[C@H](CO)[C@@H](O)[C@H](O)[C@H]1O)C3 [Stevioside]"
quantitative_readout = 20

[[record]]
compound = "C=C1C[C@@]23CC[C@H]4[C@@](C)(CCC[C@@]4(C)C(=O)O[C@@H]4O[C@H](CO)[C@@H](O)[C@H](O)[C@H]4O)[C@@H]2CC[C@]1(O[C@@H]1O[C@H](CO)[C@@H](O)[C@H](O[C@@H]2O[C@H](CO)[C@@H](O)[C@H](O)[C@H]2O)[C@H]1O[C@@H]1O[C@H](CO)[C@@H](O)[C@H](O)[C@H]1O)C3 [Reb A, Rebaudioside A]"
quantitative_readout = 20

[[record]]
compound = "C=C1C[C@@]23CC[C@H]4[C@@](C)(CCC[C@@]4(C)C(=O)O[C@@H]4O[C@H](CO)[C@@H](O)[C@H](O)[C@H]4O[C@@H]4O[C@H](CO)[C@@H](O)[C@H](O)[C@H]4O)[C@@H]2CC[C@]1(O[C@@H]1O[C@H](CO)[C@@H](O)[C@H](O[C@@H]2O[C@H](CO)[C@@H](O)[C@H](O)[C@H]2O)[C@H]1O[C@@H]1O[C@H](CO)[C@@H](O)[C@H](O)[C@H]1O)C3 [Reb D, Rebaudioside D]"
quantitative_readout = 2

[[record]]
compound = "C=C1C[C@@]23CCC4[C@](C)(C(=O)OC5OC(CO)C(O)C(OC6OC(CO)C(O)C(O)C6O)C5OC5OC(CO)C(O)C(O)C5O)CCC[C@@]4(C)[C@@H]2CCC1(OC1OC(CO)C(O)C(OC2OC(CO)C(O)C(O)C2O)C1OC1OC(CO)C(O)C(O)C1O)C3 (stereo partly shown)"
quantitative_readout = 0

